system_name: 5-lipoxygenase (Cavia porcellus, UniProt A0A286X958)
Construct: endogenous in cells; host or cells: guinea pig (Hartley strain) casein-elicited peritoneal exudate cells, intact cell suspension
test_summary: 5-Lipoxygenase inhibitory activity (conversion of 14C-arachidonic acid to 5-HETE) in guinea pig peritoneal exudate cells
Format: cell-based, guinea pig (Hartley strain)
test_parameters: concentration 10^-7 M; read-out: inhibition ratio (%) of 5-lipoxygenase activity
# inhibition at 0.1 µM values compiled below
outcome_measure: inhibition at 0.1 µM (%)

COC1=CC(=O)C(OC)=C(CCCCCCCCCC2=C(OC)C(=O)C=C(OC)C2=O)C1=O [Test Compound No. 13]	43
COC1=CC(=O)C(OC)=C(CCCCCCC2=C(OC)C(=O)C=C(OC)C2=O)C1=O [Test Compound No. 10]	17
CCCC/C=C\CCCCCCCC1=C(O)C(=O)C=C(OC)C1=O [Test Compound No. 2]	10
COC1=CC(=O)C(OC)=C(CCCCCC2=C(OC)C(=O)C=C(OC)C2=O)C1=O [Test Compound No. 9]	38
COC1=CC(=O)C(OC)=C(CCCCCCCCC2=C(OC)C(=O)C=C(OC)C2=O)C1=O [Test Compound No. 12]	36
COC1=CC(=O)C(O)=C(CCCCCCCC2OC2CCCCCCCC2=C(O)C(=O)C=C(OC)C2=O)C1=O (stereo not shown) [Test Compound No. 4]	66
COC1=CC(=O)C(O)=C(CCCCCCC/C=C\CCCCCCCC2=C(O)C(=O)C(C)=C(OC)C2=O)C1=O [Test Compound No. 3]	4
COC1=C(CCO)C(=O)C(OC)=C(CCCCCC2=C(OC)C(=O)C(CCO)=C(OC)C2=O)C1=O [Test Compound No. 19]	48
COC1=CC(=O)C(OC)=C(CCCCCCCCCCCCC2=C(OC)C(=O)C=C(OC)C2=O)C1=O [Test Compound No. 15]	5
COC1=CC(=O)C(OC)=C(CCCCCC2=C(OC)C(=O)C(C)=C(OC)C2=O)C1=O [Test Compound No. 18]	17
COC1=CC(=O)C(O)=C(CCCCCCC/C=C\CCCCCCCc2cc(O)c(C)c(O)c2)C1=O [Test Compound No. 6]	7
COC1=CC(=O)C(OC)=C(CCCCCCCC2OC2CCCCCCCC2=C(OC)C(=O)C=C(OC)C2=O)C1=O (stereo not shown) [Test Compound No. 5]	17
COC1=CC(=O)C(OC)=C(CCCCCC#CCCCCCC2=C(OC)C(=O)C=C(OC)C2=O)C1=O [Test Compound No. 16]	61

* * *

system_name: 5-lipoxygenase (Cavia porcellus)
Construct: endogenous in cells; host or cells: guinea pig (Hartley strain) casein-elicited peritoneal exudate cells, intact cell suspension
Sequence (A0A286X958 1-674): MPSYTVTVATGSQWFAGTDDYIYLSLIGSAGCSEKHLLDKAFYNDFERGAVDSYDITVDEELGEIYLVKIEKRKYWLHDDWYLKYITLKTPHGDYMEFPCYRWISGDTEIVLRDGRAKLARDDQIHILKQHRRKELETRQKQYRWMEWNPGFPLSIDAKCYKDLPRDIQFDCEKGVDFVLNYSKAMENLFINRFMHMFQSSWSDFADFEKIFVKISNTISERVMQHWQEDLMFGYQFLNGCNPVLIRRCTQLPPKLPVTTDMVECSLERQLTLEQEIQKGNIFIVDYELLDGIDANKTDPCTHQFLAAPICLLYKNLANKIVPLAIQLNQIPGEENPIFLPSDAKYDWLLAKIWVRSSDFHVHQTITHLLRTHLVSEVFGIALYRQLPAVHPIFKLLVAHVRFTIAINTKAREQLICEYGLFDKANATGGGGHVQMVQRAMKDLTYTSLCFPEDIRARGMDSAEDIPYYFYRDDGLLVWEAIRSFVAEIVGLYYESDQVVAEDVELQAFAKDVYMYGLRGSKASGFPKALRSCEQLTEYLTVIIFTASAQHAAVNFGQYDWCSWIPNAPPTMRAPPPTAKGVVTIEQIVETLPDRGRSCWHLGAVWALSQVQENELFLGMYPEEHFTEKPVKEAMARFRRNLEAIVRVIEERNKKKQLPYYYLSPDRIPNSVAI
test_summary: 5-Lipoxygenase inhibitory activity (conversion of 14C-arachidonic acid to 5-HETE) in guinea pig peritoneal exudate cells
Type: cell-based, guinea pig (Hartley strain)
test_parameters: concentration 3 × 10^-7 M; read-out: inhibition ratio (%) of 5-lipoxygenase activity
outcome_measure: inhibition at 0.3 µM (%)

COC1=CC(=O)C(O)=C(CCCCCCC/C=C\CCCCCCCc2cc(O)c(C)c(O)c2)C1=O	29
COC1=CC(=O)C(OC)=C(CCCCCCCC2=C(OC)C(=O)C=C(OC)C2=O)C1=O	64
COC1=CC(=O)C(OC)=C(CCCCCCCCCC2=C(OC)C(=O)C=C(OC)C2=O)C1=O	72
COC1=C(CCO)C(=O)C(OC)=C(CCCCCC2=C(OC)C(=O)C(CCO)=C(OC)C2=O)C1=O	74
